These measurements were taken from ChEMBL document CHEMBL5058577.

system: U2OS; assay: Multiplex assay against U2OS; type: toxicity, cell-based; conditions: human, 48 h, 10 µM, compound concentration 10 uM, replicate 1
For each entry below, report its Population Mitotic Cells (%) value.
Put down the number, then write its unit next to it.

A selection of reference data follows.
CCCCCC(O)/C=C/[C@H]1C(=O)CC(O)C1C/C=C\CCCC(=O)O (stereo partly drawn) | 10%
CCCCC1=NC2(CCCC2)C(=O)N1Cc1ccc(-c2ccccc2-c2nnn[nH]2)cc1 | 10%

Specify Population Mitotic Cells (%) for Br.CS(=O)(=O)Nc1c(O)ccc2c1CCCC2C1=NCCN1 (stereo not drawn) and stop.
10%

* * *

test system: HEK-293T; test: Multiplex assay against HEK293T; assay type: toxicity, cell-based; conditions: human, 48 h, 1 µM, compound concentration 1 uM, replicate 2
assay readout: Population Mitochondria Different-Phenotype (%)
One number for each entry, in %.

Cl.NCCc1ccc(O)c(O)c1 [DOPAMINE HYDROCHLORIDE] | 20

Give Population Mitochondria Different-Phenotype (%) for all compounds that follow.
1. Cc1cccc(NC(=O)CN2CCC(c3ccccn3)CC2)c1.Cl.Cl
2. CCCOc1ccc2[nH]cc(C3=CCNCC3)c2n1.Cl

1. 24
2. 20

Parameter requested: Population Mitochondria Different-Phenotype (%). Apply to each item below.
1. COc1ccccc1N1CCN(C[C@@H](C(=O)NC(C)(C)C)c2ccccc2)CC1.Cl.Cl
2. CC(=O)Nc1cccc2c1c(Sc1ccc(Cl)cc1)c(C)n2CC(=O)O
3. COC[C@@H](c1ccc(C(F)(F)F)cc1)N1CCN(C2(C)CCN(C(=O)c3c(C)ncnc3C)CC2)C[C@@H]1C.O=C(O)/C=C\C(=O)O [VICRIVIROC MALEATE]
4. Br.CS(=O)(=O)Nc1c(O)ccc2c1CCCC2C1=NCCN1 (stereo not given)
5. CCCCCC(O)/C=C/[C@H]1C(=O)CC(O)C1C/C=C\CCCC(=O)O (stereo not given in full)

1: 37; 2: 20; 3: 11; 4: 22; 5: 19

Kindly give each listed record's Population Mitochondria Different-Phenotype (%).
1. C[C@H](N)COC(=O)[C@@H](CCCCN)NC(=O)Cc1c(-c2ccc3ccccc3c2)[nH]c2c1ccc1ccccc12
2. CN1CCN(c2cc(-c3ccccc3)nc(N)n2)CC1

1. 29
2. 14

* * *

test system: Fibroblast; test: Multiplex assay against human fibroblast; assay type: toxicity, cell-based; details: 48 h, 10 µM, compound concentration 10 uM, replicate 2
Would you mind telling me the reported Population Normal (%) of each entry?

Recorded Population Normal (%), per entry:
Cc1cccc(NC(=O)CN2CCC(c3ccccn3)CC2)c1.Cl.Cl | 98%
Cc1noc(-c2ccc(-c3ccc(CC(=O)O)cc3)cc2)c1NC(=O)O[C@H](C)c1ccccc1Cl | 97%
CCc1cc2cc(NS(=O)(=O)c3ccc(C#N)cc3)ccc2n(CC)c1=O | 92%
CC[C@@H](C)Nc1nc(C)nc2c(-c3ccc(OC)nc3C)c(C)nn12 | 95%
COc1ccccc1N1CCN(C[C@@H](C(=O)NC(C)(C)C)c2ccccc2)CC1.Cl.Cl | 96%

Value sought for every listed molecule: Population Normal (%).
1. CCCCC1=NC2(CCCC2)C(=O)N1Cc1ccc(-c2ccccc2-c2nnn[nH]2)cc1
2. C[C@H](N)COC(=O)[C@@H](CCCCN)NC(=O)Cc1c(-c2ccc3ccccc3c2)[nH]c2c1ccc1ccccc12
3. CC(/C=C1\SC(=S)N(CCCC(=O)Nc2ccc(C(=O)O)c(O)c2)C1=O)=C\c1ccccc1
4. O=C(CCCc1ccccc1)Nc1nc2ccccc2c(=O)s1
5. CCCCCC(O)/C=C/[C@H]1C(=O)CC(O)C1C/C=C\CCCC(=O)O (stereo partly specified)
6. CC(C)COc1ccc(CNC(=O)N(Cc2ccc(F)cc2)C2CCN(C)CC2)cc1

["99%", "94%", "96%", "94%", "99%", "93%"]

* * *

Give measured Population Pyknosed Nuclei (%) for each item. Keep answers brief.
system: Fibroblast; experiment: Multiplex assay against human fibroblast; assay type: toxicity, cell-based; settings: 24 h, 1 µM, compound concentration 1 uM, replicate 2
Numbers only, in %.

Example entries and their recorded answers appear below.
NCCc1cn(S(=O)(=O)c2c(Cl)nc3sccn23)c2ccccc12.O=C(O)C(=O)O | 20
CC(C)COc1ccc(CNC(=O)N(Cc2ccc(F)cc2)C2CCN(C)CC2)cc1 | 13
CCCOc1ccc2[nH]cc(C3=CCNCC3)c2n1.Cl | 18
CC(C)(C)c1cc(NC(=O)Nc2ccc(-c3cn4c(n3)sc3cc(OCCN5CCOCC5)ccc34)cc2)no1 | 13

Okay, now this compound:
For the compound CCCCC1=NC2(CCCC2)C(=O)N1Cc1ccc(-c2ccccc2-c2nnn[nH]2)cc1 , give its reported Population Pyknosed Nuclei (%).
16

* * *

For each entry below, report its Population Fragmented Nuclei (%) value.
tested on: Fibroblast; assay: Multiplex assay against human fibroblast; format: toxicity, cell-based; conditions: 12 h, 10 µM, compound concentration 10 uM, replicate 2
Answers are plain numbers, in %.

Below, 5 compounds whose answers are already recorded.
N#Cc1cc(F)cc(-c2nc(-c3ccc(F)cn3)no2)c1 | 42
O=C(NCCN1CCC(n2c(=O)[nH]c3cc(Cl)ccc32)CC1)c1ccc(F)cc1 [HALOPEMIDE] | 24
COc1ccccc1N1CCN(C[C@@H](C(=O)NC(C)(C)C)c2ccccc2)CC1.Cl.Cl | 32
CCCCC1=NC2(CCCC2)C(=O)N1Cc1ccc(-c2ccccc2-c2nnn[nH]2)cc1 | 32
Br.CS(=O)(=O)Nc1c(O)ccc2c1CCCC2C1=NCCN1 (stereo not given) | 38

Dear reader, for each entry below, please note its Population Fragmented Nuclei (%).
1. O=C1[C@H](Cc2ccc(O)cc2)N2C(=O)CCN(C(=O)NCc3ccccc3)[C@H]2CN1Cc1cccc2ccccc12
2. COC[C@@H](c1ccc(C(F)(F)F)cc1)N1CCN(C2(C)CCN(C(=O)c3c(C)ncnc3C)CC2)C[C@@H]1C.O=C(O)/C=C\C(=O)O [VICRIVIROC MALEATE]
3. CC(C)c1noc(N2CCC(COc3ccc(-c4ccc(S(C)(=O)=O)cc4)nc3)CC2)n1
4. CC(/C=C1\SC(=S)N(CCCC(=O)Nc2ccc(C(=O)O)c(O)c2)C1=O)=C\c1ccccc1
5. Cc1noc(-c2ccc(-c3ccc(CC(=O)O)cc3)cc2)c1NC(=O)O[C@H](C)c1ccccc1Cl
6. Cc1onc(-c2ccccc2Cl)c1C(=O)N(C)c1ccc(Cl)cc1
7. Cc1cccc(NC(=O)CN2CCC(c3ccccn3)CC2)c1.Cl.Cl

[23, 48, 26, 19, 17, 24, 45]

Parameter requested: Population Fragmented Nuclei (%). Apply to each item below.
1. Cc1sc2c(c1C)C(c1ccc(Cl)cc1)=N[C@@H](CC(=O)NCCCCCCCCNC(=O)COc1cccc3c1C(=O)N(C1CCC(=O)NC1=O)C3=O)c1nnc(C)n1-2 (stereo not given in full)
2. Cc1c(CC(=O)O)c2cccnc2n1Cc1ccc(S(C)(=O)=O)cc1C(F)(F)F
3. CCCCC(=O)N(Cc1ccc(-c2ccccc2-c2nnn[nH]2)cc1)[C@H](C(=O)O)C(C)C

27
21
27

* * *

system: HEK-293T; test: Multiplex assay against HEK293T; assay type: toxicity, cell-based; settings: human, 12 h, 1 µM, compound concentration 1 uM, replicate 1
assay readout: Population Pyknosed Nuclei (%)
One number for each entry, in %.

For orientation, consider the following solved cases.
CC(C)c1noc(N2CCC(COc3ccc(-c4ccc(S(C)(=O)=O)cc4)nc3)CC2)n1 | 12
CCCOc1ccc2[nH]cc(C3=CCNCC3)c2n1.Cl | 12
Cc1noc(-c2ccc(-c3ccc(CC(=O)O)cc3)cc2)c1NC(=O)O[C@H](C)c1ccccc1Cl | 13
CC(C)COc1ccc(CNC(=O)N(Cc2ccc(F)cc2)C2CCN(C)CC2)cc1 | 11
CN[C@@H](C)C(=O)N[C@H](C(=O)N1CCC[C@H]1C(=O)Nc1snnc1-c1ccccc1)C1CCCCC1 | 15
O=C(CCCc1ccccc1)Nc1nc2ccccc2c(=O)s1 | 11

Dear reader, for each entry below, please note its Population Pyknosed Nuclei (%).
1. CC(/C=C1\SC(=S)N(CCCC(=O)Nc2ccc(C(=O)O)c(O)c2)C1=O)=C\c1ccccc1
2. CCCCC(=O)N(Cc1ccc(-c2ccccc2-c2nnn[nH]2)cc1)[C@H](C(=O)O)C(C)C
3. Cl.N=C(N)NC(=O)Cc1c(Cl)cccc1Cl [GUANFACINE HYDROCHLORIDE]
4. COc1ccccc1N1CCN(C[C@@H](C(=O)NC(C)(C)C)c2ccccc2)CC1.Cl.Cl
5. Cc1sc2c(c1C)C(c1ccc(Cl)cc1)=N[C@@H](CC(=O)NCCCCCCCCNC(=O)COc1cccc3c1C(=O)N(C1CCC(=O)NC1=O)C3=O)c1nnc(C)n1-2 (stereo not given in full)
6. CC(C)(C)c1cc(NC(=O)Nc2ccc(-c3cn4c(n3)sc3cc(OCCN5CCOCC5)ccc34)cc2)no1

[11, 12, 11, 14, 39, 11]

Provide each entry's Population Pyknosed Nuclei (%) from the list below.
1. Cc1cccc(NC(=O)CN2CCC(c3ccccn3)CC2)c1.Cl.Cl
2. Cl.NCCc1ccc(O)c(O)c1 [DOPAMINE HYDROCHLORIDE]
3. CC[C@@H](C)Nc1nc(C)nc2c(-c3ccc(OC)nc3C)c(C)nn12

1: 15; 2: 16; 3: 13
